// data source = patent US20090269356

# target: C5a des Arg (Homo sapiens, UniProt P01031 P01031:678-750)
# Sequence (P01031 678-750, one chain of several): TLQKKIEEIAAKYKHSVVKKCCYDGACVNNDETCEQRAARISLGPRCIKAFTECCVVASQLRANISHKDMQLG
# protocol text: filter; printed >>3 uM; PBS, 1 mM MgCl2, BSA, tRNA, 25 or 37 C
# condition info: tags: Complement Technologies A145.6; label: 5'-32P; stem-loop
measured attribute: Kd

Prompt: Param item = CGCCGCGGUCUCAGGCGCUGAGUCUGAGUUUACCUGCG (ssRNA, 2'-F all C and U; 2'-OMe purines except three 2'-OH purines; 3' inverted dT) [ARC186] ; retrieve measured Kd.
Completion: > 3000 nM
